Each entry below carries its reported % Inhibition.
Test system: GTase
Assay: GTase-inhibitory activity (formation of insoluble glucan from sucrose, turbidity at 550 nm)
Assay type: biochemical, Streptococcus mutans ATCC 33402
Conditions: Table 4; 0.5% test substance; 37° C., 16 hours; buffer pH 6.5
Experimental: The enzyme GTase was prepared from Streptococcus mutans and using sucrose as the substrate, the inhibitory effect of the test substances on the formation of insoluble glucan was determined. The preparation of GTase was carried out in accordance with the description in Methods for Isolation of Microorganisms (Kazue Yamazato (ed.): R&D Planning), page 733, (1) Preparation of cell-free GTase. […]
Express your answer in %, writing the number without its unit.

Would you mind telling me what % Inhibition value was observed for Cc1c(OP(=O)(O)OC2=C(O)C(C(O)CO)OC2=O)cc2c(c1C)OC(C)(CCCC(C)CCCC(C)CCCC(C)C)CC2 (stereo not drawn) ?
94.5
